Source of measurements: PubChem BioAssay AID1159580

The reader will find reported normalized growth values listed item by item below.
Test: chemical genetic growth profiling, strain panel (AID 1159580);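 also: tested at 20 µM; growth read once vehicle control cultures reached saturation at 30 °C; 1 = growth at the plate median or of vehicle wells; lower values mean less growth of the strain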
Settings: S. cerevisiae deletion strains, growth OD, locus YDL040C, strain nat1, active compounds read low
Screen size: about 5,500 compounds; about 2,000 (36%) were called active. About 18% were inconclusive and are not listed. The list shows a part of the results.

compound: CC1=C(/C=C/C(C)=C/C=C/C(C)=C/C=C/C=C(C)/C=C/C=C(C)/C=C/C2=C(C)CCCC2(C)C)C(C)(C)CCC1
normalized growth: 0.995
--
compound: NC(=O)c1cc[n+](CC2=C(C(=O)O)N3C(=O)C(NC(=O)C(c4ccccc4)S(=O)(=O)[O-])C3SC2)cc1 (stereo not given)
normalized growth: 1
--
compound: C[C@H](COc1ccccc1)N[C@H](C)[C@H](O)c1ccc(O)cc1
normalized growth: 0.994
--
compound: COc1ccc(C[C@H](N)C(=O)N[C@@H]2[C@@H](CO)OC(n3cnc4c(N(C)C)ncnc43)[C@@H]2O)cc1 (stereo not given in full)
normalized growth: 1.01
--
compound: COP(=S)(OC)Oc1ccc(SC)c(C)c1
normalized growth: 1
--
compound: CN1CCc2cccc3c2C1Cc1ccc(O)c(O)c1-3 (stereo not given)
normalized growth: 0.977
--
compound: O=C(NC(=O)c1c(F)cccc1F)Nc1cc(Cl)c(OC(F)(F)C(F)C(F)(F)F)cc1Cl (stereo not given)
normalized growth: 0.98
--
compound: CCC(COC(=O)c1cc(OC)c(OC)c(OC)c1)(c1ccccc1)N(C)C (stereo not given)
normalized growth: 0.978
--
compound: CC1=C(/C=C/C(C)=C/C=C/C(C)=C\C(=O)O)C(C)(C)CCC1
normalized growth: 0.987
--
compound: Cc1ccc(C(C)C)cc2c(C)ccc1-2
normalized growth: 0.99
--
compound: COc1cc2c(cc1O)CC1c3c(cc(O)c(OC)c3-2)CCN1C (stereo not given)
normalized growth: 1.01
--
compound: O=C(O)CNCP(=O)(O)O
normalized growth: 1.02
--
compound: O=C(O)CCC(=O)c1ccc(-c2ccccc2)cc1
normalized growth: 0.986
--
compound: COc1ccc2c(c1O)-c1c(OC)c(OC)cc3c1[C@H](C2)N(C)CC3
normalized growth: 0.982
--
compound: C=CCN1CC[C@]23c4c5ccc(O)c4OC2C(=O)CC[C@@]3(O)[C@H]1C5 (stereo not given in full)
normalized growth: 0.967
--
compound: CC1(C)O[C@@H]2CC3C4CCC5=CC(=O)C=C[C@]5(C)C4[C@@H](O)C[C@]3(C)[C@]2(C(=O)CO)O1 (stereo not given in full)
normalized growth: 1
--
compound: CCOP(=S)(OCC)Oc1ccc2c(C)c(Cl)c(=O)oc2c1
normalized growth: 0.964
--
compound: OC1CCCCC1N1CCC(c2ccccc2)CC1 (stereo not given)
normalized growth: 0.993
--
compound: CO[C@@H]1[C@@H](O[C@@H]2O[C@H](C)[C@@H](O[C@H]3C[C@@](C)(O)[C@H](O)[C@H](C)O3)[C@H](N(C)C)[C@H]2O)[C@@H](CC=O)C[C@@H](C)[C@@H](O[C@H]2CC[C@H](N(C)C)[C@@H](C)O2)/C=C/C=C/C[C@H](C)OC(=O)C[C@H]1O
normalized growth: 1.02
--
compound: CN(Cc1cnc2nc(N)nc(N)c2n1)c1ccc(C(=O)NC(CCC(=O)O)C(=O)O)cc1 (stereo not given)
normalized growth: 0.959
